Listed next: entries and their corresponding denaturant midpoint (higher = more stable).
B1: Protein S100-G, P02633 (parent)
chain: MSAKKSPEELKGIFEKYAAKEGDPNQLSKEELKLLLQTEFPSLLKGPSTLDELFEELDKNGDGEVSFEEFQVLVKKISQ

- Variants of: B1
- assaySetup: Bos taurus; pH 7; 25 °C; Urea; CD; PIPES-KOH 20 mM; reversible: yes; structure 1IGV; whole UniProt chain shown
experimentalReadout: denaturant midpoint (higher = more stable) (M)

INSERT INTO measurements (mutationkey, unitdescriptor, valuereported) VALUES
  ('E21Q D23N', 'M', 6.2),
  ('E21Q D23N E30Q', 'M', 6.1),
  ('E21Q', 'M', 5.6),
  ('D23N E30Q', 'M', 5.8);
